Exercise: for every item that follows, state its recorded viability, T/C.
System: 519858-162-T-J1-PDC complex spheroid viability
Measurement notes: Anticancer human tumor 519858-162-T-J1-PDC patient-derived colon adenocarcinoma cell line growth inhibition [GQUAD]
Details: second compound 1 µM; first compound 0.316 µM; stronger effect = lower value
Give bare numbers, in %.

Example entries and their recorded answers appear below.
CC(=O)O[C@H]1C(=O)[C@@]2(C)[C@H]([C@H](OC(=O)c3ccccc3)[C@]3(O)C[C@H](OC(=O)[C@H](O)[C@@H](NC(=O)c4ccccc4)c4ccccc4)C(C)=C1C3(C)C)[C@]1(OC(C)=O)CO[C@@H]1C[C@@H]2O + Cc1[nH]c2ccc(F)cc2c1-c1nc2c3cccnc3c3ncccc3c2[nH]1
58.5
COc1ccc([C@@H](O)c2cc(-c3ncnc4cc(N5CCOCC5)ccc34)c(F)cc2Cl)nn1 + CN(C)c1ccc(Nc2c3ccc(NC(=O)CCN4CCCC4)cc3nc3cc(NC(=O)CCN4CCCC4)ccc23)cc1
72
COc1cc(C2c3cc4c(cc3C(OC3OC5COC(C)OC5C(O)C3O)C3COC(=O)C23)OCO4)cc(OC)c1O (stereo not given) + Cc1[nH]c2ccc(F)cc2c1-c1nc2c3cccnc3c3ncccc3c2[nH]1
108
C=CCn1c(=O)c2cnc(Nc3ccc(N4CCN(C)CC4)cc3)nc2n1-c1cccc(C(C)(C)O)n1 + Cc1cnc(CNC(=O)c2c(=O)c3ccc(N4CCCN(C)CC4)nc3n3c2sc2ccccc23)cn1
38.8

Query compound follows.
Req: Item CC[C@@]1(O)C(=O)OCc2c1cc1n(c2=O)Cc2cc3c(CN(C)C)c(O)ccc3nc2-1 + Cc1[nH]c2ccc(F)cc2c1-c1nc2c3cccnc3c3ncccc3c2[nH]1 with 519858-162-T-J1-PDC complex spheroid viability - viability, T/C?
Resp: 75.9

###

Can you tell me viability, T/C for the items I'm about to list?
Test system: 519858-162-T-J1-PDC complex spheroid viability
Measurement notes: Anticancer human tumor 519858-162-T-J1-PDC cell line growth inhibition [GQUAD];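 further: spheroids exposed to compounds for 7 days; 100% = DMSO vehicle control viability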
Details: second compound 1 µM; first compound 0.0999 µM; stronger effect = lower value
Excerpt: DNA G-quadruplex Stabilizer Agents in Combinations in Complex Spheroids A high-throughput screen of multi-cell type tumor spheroids was designed to identify active combinations of DNA G-quadruplex stabilizer agents and targeted small molecules. […] Compounds. […] If the clinical Cmax for an agent had not been determined, the highest concentration tested was 10 microM. […]
One number for each entry, in %.

// worked examples, viability, T/C included
Cc1[nH]c2ccccc2c1CCNCc1ccc(/C=C/C(=O)NO)cc1 + Cc1[nH]c2ccc(F)cc2c1-c1nc2c3cccnc3c3ncccc3c2[nH]1
54.5
CC[C@@]1(O)C(=O)OCc2c1cc1n(c2=O)Cc2cc3c(CN(C)C)c(O)ccc3nc2-1 + Cc1[nH]c2ccc(F)cc2c1-c1nc2c3cccnc3c3ncccc3c2[nH]1
69.7
CC[C@@]1(O)C(=O)OCc2c1cc1n(c2=O)Cc2cc3c(CN(C)C)c(O)ccc3nc2-1 + Cc1cnc(CNC(=O)c2c(=O)c3ccc(N4CCCN(C)CC4)nc3n3c2sc2ccccc23)cn1
59
Cn1ncnc1[C@H]1c2n[nH]c(=O)c3cc(F)cc(c23)N[C@@H]1c1ccc(F)cc1 + CN(C)c1ccc(Nc2c3ccc(NC(=O)CCN4CCCC4)cc3nc3cc(NC(=O)CCN4CCCC4)ccc23)cc1
88.9

Consider the following items and state reported viability, T/C for each.
1. CCc1c2c(nc3ccc(O)cc13)-c1cc3c(c(=O)n1C2)COC(=O)[C@]3(O)CC + Cc1cnc(CNC(=O)c2c(=O)c3ccc(N4CCCN(C)CC4)nc3n3c2sc2ccccc23)cn1
2. CCc1c2c(nc3ccc(O)cc13)-c1cc3c(c(=O)n1C2)COC(=O)[C@]3(O)CC + Cc1[nH]c2ccc(F)cc2c1-c1nc2c3cccnc3c3ncccc3c2[nH]1
3. Cn1ncnc1[C@H]1c2n[nH]c(=O)c3cc(F)cc(c23)N[C@@H]1c1ccc(F)cc1 + Cc1cnc(CNC(=O)c2c(=O)c3ccc(N4CCCN(C)CC4)nc3n3c2sc2ccccc23)cn1

Resp:
[75, 54.6, 69.9]
